Exercise: state measured viability, T/C for each of the compounds provided.
test system: 762968-020-R-J2-PDC spheroids viability; test: Anticancer human tumor 762968-020-R-J2-PDC patient-derived colon carcinoma cell line growth inhibition [TAK]; conditions: second compound 0.949 µM; first compound 0.0316 µM; active compounds read low; spheroids with HUVEC and MSC;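 further: spheroids exposed to drug for 7 days before readout; 100% = DMSO vehicle control wells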
One number for each entry, in %.

// worked examples, viability, T/C included
- COMPOUND: "CC(C)(C)c1nc(-c2cccc(NS(=O)(=O)c3c(F)cccc3F)c2F)c(-c2ccnc(N)n2)s1 + CC(C)NCC(C(=O)N1CCN(c2ncnc3c2C(C)CC3O)CC1)c1ccc(Cl)cc1"
  viability, T/C (%): 93.9
- COMPOUND: "Cc1nc(NC(=O)N2CCCC2C(N)=O)sc1-c1ccnc(C(C)(C)C(F)(F)F)c1 (stereo unspecified) + CC(C)NCC(C(=O)N1CCN(c2ncnc3c2C(C)CC3O)CC1)c1ccc(Cl)cc1"
  viability, T/C (%): 113
- COMPOUND: "CC(C)CC(NC(=O)CNC(=O)c1cc(Cl)ccc1Cl)B1OC(=O)CC(CC(=O)O)(C(=O)O)O1 (stereo unspecified) + CC(C)NCC(C(=O)N1CCN(c2ncnc3c2C(C)CC3O)CC1)c1ccc(Cl)cc1"
  viability, T/C (%): 103
- COMPOUND: "COc1c(OCCCN2CCOCC2)ccc2c3n(c(=NC(=O)c4cnc(N)nc4)nc12)CCN3 + CC(C)NCC(C(=O)N1CCN(c2ncnc3c2C(C)CC3O)CC1)c1ccc(Cl)cc1"
  viability, T/C (%): 94
- COMPOUND: "COC1CC2CCC(C)C(O)(O2)C(=O)C(=O)N2CCCCC2C(=O)OC(C(C)CC2CCC(OCCO)C(OC)C2)CC(=O)C(C)C=C(C)C(O)C(OC)C(=O)C(C)CC(C)C=CC=CC=C1C (stereo unspecified) + CC(C)NCC(C(=O)N1CCN(c2ncnc3c2C(C)CC3O)CC1)c1ccc(Cl)cc1"
  viability, T/C (%): 99.5

Here is the next item to consider.
Query: Given the compound CC(C)n1nc(-c2ccc3oc(N)nc3c2)c2c(N)ncnc21 + CC(C)NCC(C(=O)N1CCN(c2ncnc3c2C(C)CC3O)CC1)c1ccc(Cl)cc1 , write its reported viability, T/C.
Response: 87.4
